SYSTEM NAME: Amine oxidase [flavin-containing] B (Bos taurus, UniProt P56560)
Sequence (P56560 whole entry): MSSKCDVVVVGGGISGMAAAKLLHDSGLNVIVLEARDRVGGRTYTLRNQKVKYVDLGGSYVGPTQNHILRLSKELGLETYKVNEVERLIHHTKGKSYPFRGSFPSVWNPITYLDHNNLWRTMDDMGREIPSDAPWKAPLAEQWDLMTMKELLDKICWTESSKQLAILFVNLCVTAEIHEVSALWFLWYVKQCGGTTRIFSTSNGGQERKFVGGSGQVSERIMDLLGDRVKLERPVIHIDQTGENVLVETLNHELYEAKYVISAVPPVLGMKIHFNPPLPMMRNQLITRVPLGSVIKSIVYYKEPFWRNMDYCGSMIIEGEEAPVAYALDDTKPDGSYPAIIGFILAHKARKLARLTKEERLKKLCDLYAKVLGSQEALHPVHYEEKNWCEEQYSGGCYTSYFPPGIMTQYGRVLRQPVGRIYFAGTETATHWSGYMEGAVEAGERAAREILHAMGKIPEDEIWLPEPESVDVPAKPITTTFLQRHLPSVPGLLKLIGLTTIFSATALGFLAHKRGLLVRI
pKi: −log10 of the molar value.
REPORTED ENDPOINT: pKi

Solved cases (2 shown):
SMILES TEXT: O=C(Nc1ccc(NC(=O)c2cc3ccccc3oc2=O)cc1)c1cc2ccccc2oc1=O
pKi: 5.76
//
SMILES TEXT: O=C(N[C@H]1CCCC[C@@H]1NC(=O)c1cc2ccccc2oc1=O)c1cc2ccccc2oc1=O
pKi: 5.85

P: O=C(NCCCCCCNC(=O)c1cc2ccccc2oc1=O)c1cc2ccccc2oc1=O
Q: O=C(NCCNC(=O)c1cc2ccccc2oc1=O)c1cc2ccccc2oc1=O
Req: Of the two listed items, P and Q , which carries the larger pKi figure? Refer to your chosen item by its label in the answer.
Resp: P

* * *

SYSTEM NAME: Amine oxidase [flavin-containing] A (Bos taurus)
Sequence (P21398 whole entry): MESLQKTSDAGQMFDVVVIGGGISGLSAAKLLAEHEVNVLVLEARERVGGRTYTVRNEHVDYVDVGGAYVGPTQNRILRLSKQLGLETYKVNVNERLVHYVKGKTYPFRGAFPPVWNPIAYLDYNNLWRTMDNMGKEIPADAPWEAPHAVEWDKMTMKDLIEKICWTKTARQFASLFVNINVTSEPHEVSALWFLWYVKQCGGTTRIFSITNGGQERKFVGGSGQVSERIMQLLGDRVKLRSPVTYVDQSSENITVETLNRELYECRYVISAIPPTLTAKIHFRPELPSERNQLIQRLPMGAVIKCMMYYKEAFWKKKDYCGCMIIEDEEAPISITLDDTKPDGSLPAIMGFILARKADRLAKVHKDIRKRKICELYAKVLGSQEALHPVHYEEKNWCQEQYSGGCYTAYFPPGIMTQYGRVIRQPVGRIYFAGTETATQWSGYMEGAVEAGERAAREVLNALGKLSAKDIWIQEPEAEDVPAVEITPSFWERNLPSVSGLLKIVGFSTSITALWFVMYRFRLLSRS
pKi: −log10 of the molar value.
REPORTED ENDPOINT: pKi

SMILES TEXT: O=C(N[C@H]1CCCC[C@@H]1NC(=O)c1cc2ccccc2oc1=O)c1cc2ccccc2oc1=O
pKi: 6.74

1: COc1ccc2cc(C(=O)NCCCCNC(=O)c3cc4ccc(OC)cc4oc3=O)c(=O)oc2c1
2: O=C(Nc1ccccc1NC(=O)c1cc2ccccc2oc1=O)c1cc2ccccc2oc1=O
3: O=C(Nc1ccc(NC(=O)c2cc3ccccc3oc2=O)cc1)c1cc2ccccc2oc1=O
Req: Arrange the 3 compounds from largest to smallest pKi. Answer format: list of labels, ordered as asked.
Resp: 2, 1, 3
